test target: human TLR9 (Homo sapiens, UniProt Q9NR96)
Construct: HA; host or cells: 293XL-hTLR9-HA (HEK293)
Sequence (Q9NR96 26-1032): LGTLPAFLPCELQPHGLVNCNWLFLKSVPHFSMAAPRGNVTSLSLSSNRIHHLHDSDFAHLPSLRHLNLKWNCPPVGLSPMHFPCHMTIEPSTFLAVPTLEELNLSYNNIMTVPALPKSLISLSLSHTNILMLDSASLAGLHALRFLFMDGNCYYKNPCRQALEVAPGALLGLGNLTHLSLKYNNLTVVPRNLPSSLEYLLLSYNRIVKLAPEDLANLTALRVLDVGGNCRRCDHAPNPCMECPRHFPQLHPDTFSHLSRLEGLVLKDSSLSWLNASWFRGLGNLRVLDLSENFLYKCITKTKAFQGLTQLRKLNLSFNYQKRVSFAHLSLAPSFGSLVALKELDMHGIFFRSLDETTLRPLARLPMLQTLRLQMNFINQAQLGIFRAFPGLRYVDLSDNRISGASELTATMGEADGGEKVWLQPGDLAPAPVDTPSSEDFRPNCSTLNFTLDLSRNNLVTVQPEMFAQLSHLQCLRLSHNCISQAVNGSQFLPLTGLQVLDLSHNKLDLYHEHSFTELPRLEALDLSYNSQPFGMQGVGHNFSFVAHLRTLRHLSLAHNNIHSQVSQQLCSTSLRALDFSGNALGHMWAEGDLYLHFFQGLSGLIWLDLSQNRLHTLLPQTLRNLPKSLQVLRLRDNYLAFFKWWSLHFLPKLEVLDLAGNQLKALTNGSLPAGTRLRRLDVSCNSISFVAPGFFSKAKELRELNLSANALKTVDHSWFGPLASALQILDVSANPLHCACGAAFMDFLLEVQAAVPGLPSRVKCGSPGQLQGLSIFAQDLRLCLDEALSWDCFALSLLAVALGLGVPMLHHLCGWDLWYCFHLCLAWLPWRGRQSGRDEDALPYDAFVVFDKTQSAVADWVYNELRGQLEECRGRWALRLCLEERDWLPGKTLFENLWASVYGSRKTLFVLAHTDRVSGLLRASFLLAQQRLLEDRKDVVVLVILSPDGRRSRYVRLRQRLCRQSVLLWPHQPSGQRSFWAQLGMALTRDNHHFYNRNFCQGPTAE
assay info: HEK-TLR9 NF-κB-luciferase reporter, ODN2006 stimulation
Assay type: cell-based
measurement conditions: HEK-TLR9; 500 nM ASO 45 min, then 200 nM ODN2006 overnight; percentage of ODN2006 only
In the oligonucleotide strings, read from the 5' end, every base follows the letter of its sugar. An asterisk marks phosphorothioate; unmarked linkages are phosphodiester. Other units and linkages are bracketed, terminal groups are in braces. A string of capitals states the bases alone. d = 2'-deoxy (DNA); m = 2'-O-methyl
# cutoff 60% applies to TLR9-500 nM: averaged NF-κB-Luciferase relative to ODN2006; >= gives Criterion met, < gives Criterion not met

INSERT INTO assay_data (substance, assigned_category) VALUES
  ('mA*mA*mU*mU*mU*A*A*A*G*C*A*T*G*A*A*mU*mA*mU*mU*mA (mA*mA*mU*mU*mU*dA*dA*dA*dG*dC*dA*dT*dG*dA*dA*mU*mA*mU*mU*mA) [[CDKN2B-AS1]645]', 'Criterion not met'),
  ('mC*mU*mU*mC*mU*C*T*C*T*G*G*T*C*C*C*mA*mU*mC*mC*mC (mC*mU*mU*mC*mU*dC*dT*dC*dT*dG*dG*dT*dC*dC*dC*mA*mU*mC*mC*mC) [[LINC-PINT]112]', 'Criterion met'),
  ('mG*mU*mC*mC*mG*T*A*C*C*T*C*C*A*C*C*mC″mA*mC*mC*mG [[LINC-PINT]727.1]', 'Criterion not met'),
  ('mC*mC*mA*mU*mC*C*C*T*T*C*T*G*C*T*G*mC*mC*mA*mA*mG (mC*mC*mA*mU*mC*dC*dC*dT*dT*dC*dT*dG*dC*dT*dG*mC*mC*mA*mA*mG; antisense) [ILING-PINT199]', 'Criterion met');
